Attribution: PubChem BioAssay

# Method: small-molecule microarray binders of probe aWnt5a, primary screen, biochemical, biotinylated probe, 635/667 nm fluorescence (AID 1113);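 also: score merges 667 nm fluorescence intensity with signal-to-noise per printed feature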
# Experimental Conditions: higher = more signal
The threshold is inclusive: composite z-score of exactly -0.06 counts as Condition met; values below receive Condition not met.

Some solved cases for reference:
C#CCN([C@H](/C=C/C1CC1)[C@@H](O)Cc1ccccc1)[C@@H](Cc1ccccc1)C(=O)OC :: Condition not met
CC[C@H](C)C(=O)O[C@H]1CC[C@]2(C)C3=C(CCC2C1(C)C)[C@]1(C)CC[C@H]([C@H](C)CCCC(C)C)[C@@]1(C)CC3 (some centres not stated) :: Condition met
COC(=O)c1c(CC[C@@H](CO)NC(=O)N[C@@H](Cc2ccccc2)Cn2cc(-c3cncn3C)nn2)oc(C(C)=O)c1C(=O)OC :: Condition not met

Input: Record C=CC[C@]1(C(=O)OC)N=C(c2ccc(OCCCO)cc2)O[C@H]1c1ccccc1N=[N+]=[N-] ; criterion: composite z-score no lower than -0.06. Met?
Output: Condition met

Input: For this compound, is measured composite z-score -0.06 or higher? COc1ccc(NC(=O)O[C@H]2[C@H](OC(=O)Nc3ccc4c(c3)OCO4)[C@H](OC(=O)Nc3ccc4c(c3)OCO4)[C@@H](OC)O[C@@H]2CO)cc1
Output: Condition not met

Input: Test whether the compound CO[C@H]1O[C@H](CO)[C@@H](OC(=O)Nc2ccccc2)[C@@H]2OC(=O)[C@H](Cc3ccccc3)C/C=C/C[C@@H](Cc3ccccc3)C(=O)O[C@@H]12 records composite z-score of -0.06 or higher.
Output: Condition met

Input: Exam item: decide whether the reported composite z-score for CCOC(=O)C1=C[C@@H](C(C)(C)C)N(S(=O)(=O)c2ccc(C)cc2)[C@H]1c1ccccc1Cl is at least -0.06.
Output: Condition met

###

# Test system: glycogen synthase kinase-3 (GSK3A per assay name; protocol says GSK3B)
# Method: GSK3 binders on small-molecule microarrays, primary screen, biochemical, small-molecule microarray, 635 nm fluorescence, GSK3A (AID 1103); also: the record names both GSK3A and GSK3B
# Experimental Conditions: small-molecule microarray binding, fluorescence 635 nm; higher = more signal
Entries and their composite z-score
// response body must contain only the number

Lab note: measured composite z-score of NC(=O)[C@@]1(CCS(=O)(=O)c2ccccc2)COC(c2ccc(OCCCO)cc2)=N1 was -0.123

Record summary for O=C1C2C=CC(C(O)c3cccs3)N(Nc3ccccc3)C2C(=O)N1c1ccccc1 (centres undefined) : reported composite z-score = -0.828

###

# Method: basal HepG2 mitochondrial membrane potential changes, profiling panel, cell-based, JC-1 fluorescence, 24 h, 100 nL compound (AID 1167); also: test concentration not given here
# Experimental Conditions: higher = more signal
Decision: z-score >= -1 yields T, all other cases yield F.

Some entries whose results are on file:
COC(=O)C1(CC(C)C)C=C2C(=C(C(C)C)C(=O)C2C)CN1 (stereo not given) :: F
CC[C@H](C)C(=O)O[C@H]1CC[C@]2(C)C3=C(CCC2C1(C)C)[C@]1(C)CC[C@H]([C@H](C)CCCC(C)C)[C@@]1(C)CC3 (stereo not given in full) :: T
[N-]=[N+]=NCc1ccccc1[C@@H]1OC(c2ccc(OCCCO)cc2)=N[C@]1(Cc1ccccc1)C(=O)NCc1ccccc1 :: T
CCc1cccc(NC(=O)O[C@H]2[C@H](OC(=O)Nc3ccc4c(c3)OCO4)[C@H](OC(=O)Nc3ccc4c(c3)OCO4)[C@@H](OC)O[C@@H]2CO)c1 :: F

Now take the following compound into account.
Input: Tell me whether z-score is at least -1 here: COc1ccccc1CN1C(=O)c2ccccc2[C@@H](C(=O)NCCCN(C)C)[C@@H]1c1ccc(CO)cc1
Output: T

###

# Method: small-molecule binders of probe aNOTCH2, primary screen, biochemical, small-molecule microarray, 635/667 nm fluorescence (AID 1121);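 also: score merges feature fluorescence read at 667 nm with its signal to noise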
# Experimental Conditions: higher = more signal
Observation Type: composite z-score
Respond with the number and no other words.

As a guide, the following entries are already answered.
CCCCC(=C=CC[C@@H](O)c1cccc(OCCO)c1)C[C@@H](O)COCc1ccccc1 :: -0.104
CC(C)CNC(=O)[C@@H]1c2ccccc2C(=O)N(CC23CC4CC(CC(C4)C2)C3)[C@H]1c1ccc(CO)cc1 :: -0.14
CCCC=C(CCC)[C@@H](NC(=O)c1ccco1)c1ccc(C(=O)OC)cc1 :: -0.0222

composite z-score for COc1ccccc1CN1C(=O)c2ccccc2[C@@H](C(=O)NCCCN(C)C)[C@@H]1c1ccc(CO)cc1 is -0.152

###

# Method: binders of probe aFST on microarray, primary screen, stem cell growth factor project, biochemical, small-molecule microarray, fluorescence 635/667 (AID 1086);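 also: score merges 667 nm fluorescence with signal-to-noise of each printed compound spot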
# Experimental Conditions: higher = more signal
Some molecules, each annotated with its measured composite z-score.
Reply with just the number.

COc1ccc([Si](C)(C)[C@H]2[C@H](CCO)O[C@@]3(C(=O)N(Cc4ccccc4)c4ccc(N(C=O)c5ccccc5)cc43)[C@@H]2C)cc1 :: 0.643

So for C=CCC(OC(C)=O)[C@@H]1[C@@H](N(Cc2cccc3ccccc23)C(=O)c2cccc3ccccc23)c2cc(OCCCO)ccc2N1C(=O)Cc1ccc2ccccc2c1 (some centres not stated) , the logged composite z-score turned out to be -0.0942

Record COCCOC(=O)N1C(=O)[C@@]2(c3ccccc31)[C@H](C(=O)N1CCCCCCC1)[C@H]1C(=O)O[C@H](c3ccccc3)[C@H](c3ccccc3)N1[C@@H]2c1ccc(O)cc1 , field composite z-score: 3.43

Entry under test: CCCCCCCCCCC(O)C1C=CC2C(=O)N(C)C(=O)C2N1N1CCCCC1 (configuration not stated) . Its composite z-score was -0.744

###

Below is a list of entries, each paired with its recorded composite z-score value.
# Method: small-molecule microarray binders of probe aCHRDL2, primary screen, biochemical, biotinylated probe, 635/667 nm fluorescence (AID 1100)
# Experimental Conditions: higher = more signal
# output: bare number, no unit

Example cases with answers are listed next.
COCCOC(=O)N1C(=O)[C@@]2(c3cc(C#CCC(C(=O)OC)C(=O)OC)ccc31)[C@H](C(=O)N1CCc3cc(OC)c(OC)cc3C1)[C@H]1C(=O)O[C@H](c3ccccc3)[C@H](c3ccccc3)N1[C@@H]2c1ccc(O)cc1 :: 0.0085
CC1CC/C=C\[C@H]2OC34C=CCN(CCN5CCOCC5)C(=O)[C@H]3N(CCCCCCO)C(=O)[C@@H]4C2C(=O)O1 (stereo partly drawn) :: 0.0746

Now look at this entry.
According to the records, this compound CCCCC(=C=CC[C@@H](O)c1ccc(OCCO)cc1)C[C@@H](O)c1ccccn1 displays composite z-score of -0.162

###

# Method: E. coli acrAB mutant growth effects, primary screen, E. coli filamentation inducers, strain DRC39, OD650, 48 h (AID 1179);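 also: screen aims at cell division blockers that make cells filament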
# Experimental Conditions: E. coli DRC39 delta-acrAB growth, higher = more signal, called active from +8 up or from −8 down
Mark label 1 for reported z-score of 0.7 or greater; mark label 0 for anything smaller.

Reference set, count: 4
COCCCNC(=O)[C@@H]1c2ccccc2C(=O)N(Cc2cc(C(F)(F)F)cc(C(F)(F)F)c2)[C@H]1c1ccc(CO)cc1 :: label 0
CCOC(=O)C1=CC[C@@H](c2ccc(F)cc2)N(S(=O)(=O)c2ccc(C)cc2)[C@H]1c1ccc([N+](=O)[O-])cc1 :: label 0
N#Cc1ccc(C(O)C2C=CC3C(=O)NC(=O)C3N2Nc2ccccn2)cc1 (configuration not stated) :: label 1
C=CCOC(=O)[C@H]1[C@@H]2C(=O)O[C@@H](c3ccccc3)[C@@H](c3ccccc3)N2[C@@H](c2ccc(OCCOC(=O)[C@H]3C[C@H]4C(=O)NCC(=O)N4[C@H]3c3ccc(O)cc3)cc2)[C@]12C(=O)Nc1ccc(I)cc12 :: label 1

Input: z-score >= 0.7 for CCCCN1CC=CC23O[C@@H]4C=CCOC(=O)[C@@H]4[C@H]2C(=O)N(CCO)[C@@H]3C1=O (some centres not stated) ?
Output: label 0

###

# Tested on: Inhibin beta A chain (activin A)
# Method: INHBA (activin A) binders on microarrays, primary screen, biochemical, small-molecule microarray, 635 nm fluorescence scan (AID 1107);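 also: mouse activin A protein probed at 4.33 µg/mL on printed slides; score merges bound-protein fluorescence near 667 nm with spot signal-to-noise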
# Experimental Conditions: small-molecule microarray binding, higher = more signal
Entries and their composite z-score
Output: the number by itself.

Worked cases, answers included:
COCC(=C=CC[C@@H](O)c1ccc(OCCO)cc1)C[C@@H](O)COCc1ccccc1 :: 1.42
COCCOC(=O)N1C(=O)[C@@]2(c3cc(C#CC4(O)CCCCCC4)ccc31)[C@H](C(=O)N1CCc3cc(OC)c(OC)cc3C1)[C@H]1C(=O)O[C@H](c3ccccc3)[C@H](c3ccccc3)N1[C@@H]2c1ccc(O)cc1 :: 0.122

Proceeding to the next compound to report its composite z-score.
Measured composite z-score of COc1ccc(C#Cc2ccc3c(c2)[C@]2(C(=O)N3)[C@H](C(=O)Nc3nc4ccccc4s3)[C@H]3C(=O)O[C@H](c4ccccc4)[C@H](c4ccccc4)N3[C@@H]2c2ccc(OCCO)cc2)cc1 : -0.37
